test system: human liver microsomes; assay: Microsomal stability assay; assay type: in vitro ADME; details: fu = 1, Q = 20.0 mL∙min-1∙kg-1, human
READOUT: Eh (hepatic extraction ratio) (%)

> print(dat)
                                   molecule  scale.unit  experimental.value
1  CC(C)OC(=O)c1cc([N+](=O)[O-])c2sc(N3CCC4(CC3)OC[C@H](C)O4)nc(=O)c2c1 [Compound 6c]           %                75.3
2  C[C@H]1COC2(CCN(c3nc(=O)c4cc(C(=O)N(C)C)cc([N+](=O)[O-])c4s3)CC2)O1 [Compound 7c]           %                  13
3  C[C@H]1COC2(CCN(c3nc(=O)c4cc(C#N)cc([N+](=O)[O-])c4s3)CC2)O1 [Compound 9]           %                43.5
4  C[C@H]1COC2(CCN(c3nc(=O)c4cccc([N+](=O)[O-])c4s3)CC2)O1 [Compound 23]           %                22.5

---

test system: human liver microsomes; experiment: Microsomal stability assay; type: in vitro ADME; conditions: human liver microsomes
READOUT: Clint,micro

> print(dat)
                                   compound          assayed.system           experimental.value
1  C[C@H]1COC2(CCN(c3nc(=O)c4cccc([N+](=O)[O-])c4s3)CC2)O1 [Compound 23]  human liver microsomes    5.1 µl.min-1-mg-1 protein
2  C[C@H]1COC2(CCN(c3nc(=O)c4cc(Br)cc([N+](=O)[O-])c4s3)CC2)O1 [Compound 11]  human liver microsomes     16 µl.min-1-mg-1 protein
3  CON(C)C(=O)c1cc([N+](=O)[O-])c2sc(N3CCC4(CC3)OC[C@H](C)O4)nc(=O)c2c1 [Compound 7f]  human liver microsomes    9.5 µl.min-1-mg-1 protein
4  C[C@H]1COC2(CCN(c3nc(=O)c4cc(C(=O)N(C)C)cc([N+](=O)[O-])c4s3)CC2)O1 [Compound 7c]  human liver microsomes    2.6 µl.min-1-mg-1 protein
5  CC(C)OC(=O)c1cc([N+](=O)[O-])c2sc(N3CCC4(CC3)OC[C@H](C)O4)nc(=O)c2c1 [Compound 6c]  human liver microsomes   52.9 µl.min-1-mg-1 protein
6  C[C@H]1COC2(CCN(c3nc(=O)c4cc(I)cc([N+](=O)[O-])c4s3)CC2)O1 [Compound 10]  human liver microsomes   16.1 µl.min-1-mg-1 protein
7  COC(=O)c1cc([N+](=O)[O-])c2sc(N3CCC4(CC3)OC[C@H](C)O4)nc(=O)c2c1 [Compound 6a]  human liver microsomes  314.7 µl.min-1-mg-1 protein
8  C[C@H]1COC2(CCN(c3nc(=O)c4cc(C#N)cc([N+](=O)[O-])c4s3)CC2)O1 [Compound 9]  human liver microsomes   13.3 µl.min-1-mg-1 protein

---

experiment: Microsomal stability assay; type: in vitro ADME, human; conditions: pH 7.4; human liver microsomes, 37 °C
READOUT: half-life at 1 µM

> print(dat)
                            chemical.smiles            readout  experimental.value
1  C[C@H]1COC2(CCN(c3nc(=O)c4cccc([N+](=O)[O-])c4s3)CC2)O1  half-life at 1 µM             277 min
2  C[C@H]1COC2(CCN(c3nc(=O)c4cc(C#N)cc([N+](=O)[O-])c4s3)CC2)O1  half-life at 1 µM             105 min
3  CON(C)C(=O)c1cc([N+](=O)[O-])c2sc(N3CCC4(CC3)OC[C@H](C)O4)nc(=O)c2c1  half-life at 1 µM             147 min
4  C[C@H]1COC2(CCN(c3nc(=O)c4cc(C(=O)N(C)C)cc([N+](=O)[O-])c4s3)CC2)O1  half-life at 1 µM             533 min
5  C[C@H]1COC2(CCN(c3nc(=O)c4cc(I)cc([N+](=O)[O-])c4s3)CC2)O1  half-life at 1 µM            84.5 min
6  CC(C)OC(=O)c1cc([N+](=O)[O-])c2sc(N3CCC4(CC3)OC[C@H](C)O4)nc(=O)c2c1  half-life at 1 µM            26.5 min
7  COC(=O)c1cc([N+](=O)[O-])c2sc(N3CCC4(CC3)OC[C@H](C)O4)nc(=O)c2c1  half-life at 1 µM            4.45 min
8  C[C@H]1COC2(CCN(c3nc(=O)c4cc(Br)cc([N+](=O)[O-])c4s3)CC2)O1  half-life at 1 µM            87.7 min
